# Target Under Test: human ALDH2 wild type (Homo sapiens)
# Construct: His-tag (pTrcHis vector) (N); made in house; host or cells: E. coli BL21
# Assay Protocol: ALDH2 enzymatic assay (NADH at 340 nm), recombinant wild type enzyme
# Type: biochemical
# Set-up: key: −: no activation or inhibition; +: activation less than control 1; ++: activation similar to control 1, within 10%; +++: activation more than control 1 and less than control (compound 161); ++++: activation similar to compound 161, within 10%
# Recorded Conditions: activation relative to benchmarks control 1 and compound 161
Parameter: ALDH2 (wild-type)

{"Compound": "COc1ccc(CNC(=O)c2c(Cl)ccnc2OC2CC2)cc1F", "ALDH2 (wild-type)": "++"}
{"Compound": "CCC(CC)Oc1cccc(Cl)c1C(=O)NCc1ccc(OC)c(F)c1", "ALDH2 (wild-type)": "++"}
{"Compound": "COc1ccc(CNC(=O)c2c(Cl)ccn(C)c2=O)cc1F", "ALDH2 (wild-type)": "+"}
{"Compound": "COc1c(F)cc(CNC(=O)c2c(Cl)ccnc2Cl)cc1F", "ALDH2 (wild-type)": "+"}
{"Compound": "COc1ccc(CNC(=O)c2c(Cl)cccc2OCC(C)(C)N(C)C)cc1F", "ALDH2 (wild-type)": "+"}

Enquiry: For the compound shown here, COC(=O)c1cccc(Oc2cccc(Cl)c2C(=O)NCc2ccc(OC)c(F)c2)c1 , give the reported ALDH2 (wild-type).
Return: ++

Enquiry: Fill in: ALDH2 (wild-type) of COc1ccc(CNC(=O)c2c(Cl)cccc2Br)cc1 is ___
Return: ++

Enquiry: // ALDH2 (wild-type) lookup, key: COc1cccc(CNC(=O)c2c(Cl)cccc2Cl)c1
Return: +

Enquiry: I am curious: what ALDH2 (wild-type) value has been reported for O=C1OCc2cc(CNC(=O)c3c(Cl)ccnc3OCC3CC3)ccc21 ?
Return: +

Enquiry: Report ALDH2 (wild-type) for COc1ccc(CNC(=O)c2c(Cl)ccnc2OCC2CCCC2)cc1F please.
Return: ++

Enquiry: Give the measured ALDH2 (wild-type) of COc1ccc(CNC(=O)c2c(Cl)cccc2OCC2CC2C)cc1F (stereo not drawn) .
Return: +++

Enquiry: Item under review: COc1ccc(CNC(=O)c2c(Cl)ccnc2OCCN(C)C)cc1F . Reported ALDH2 (wild-type)?
Return: +

Enquiry: What measured ALDH2 (wild-type) goes with COc1ccc(CNC(=O)c2c(C(F)(F)F)ccnc2OCC2CC2)cc1F ?
Return: +

Enquiry: Entry under review: COc1ccc(CNC(=O)c2c(C)cccc2Br)cc1F . Reported ALDH2 (wild-type)?
Return: +

Enquiry: ALDH2 (wild-type) lookup needed for CC(C)Oc1ccc(CNC(=O)c2c(Cl)ccnc2Cl)cc1F , thanks.
Return: −

Enquiry: Quick one: ALDH2 (wild-type) for O=C(NCc1ccc(F)c(F)c1)c1c(Cl)cccc1Br ?
Return: +

Enquiry: Quick check: ALDH2 (wild-type) of COc1ccc(CNC(=O)c2c(Cl)ccnc2Cl)cc1F ?
Return: ++

Enquiry: Looking for the measured ALDH2 (wild-type) of CCC(CC)Oc1nccc(Cl)c1C(=O)NCc1ccc(OC)c(F)c1 , can you help?
Return: ++

Enquiry: Which measured ALDH2 (wild-type) value corresponds to COc1ccc(CNC(=O)c2c(Cl)cncc2OCC(C)C)cc1F ?
Return: +

Enquiry: // returns reported ALDH2 (wild-type) for input COCCOc1cccc(Cl)c1C(=O)NCc1ccc(OC)c(F)c1
Return: ++

Enquiry: I would be grateful if you could share the reported ALDH2 (wild-type) for CCSc1nccc(Cl)c1C(=O)NCc1ccc(OC)c(F)c1 .
Return: ++

###

# Target Under Test: human ALDH2*2 recombinant mutant enzyme (E487K) (Homo sapiens, UniProt P05091, E504K)
# Construct: His-tag (pTrcHis vector) (N); made in house; host or cells: E. coli BL21
# Assay Protocol: ALDH2 enzymatic assay (NADH at 340 nm), recombinant mutant enzyme
# Assay type: biochemical
# Parameters: key: −: no activation or inhibition; +: activation less than control 1; ++: activation similar to control 1, within 10%; +++: activation more than control 1 and less than control (compound 161); ++++: activation similar to compound 161, within 10%
# Recorded Conditions: activation relative to benchmarks control 1 and compound 161
Parameter: ALDH2 (mutant)

Worked cases, ALDH2 (mutant) given:
{"Compound": "COc1cc(CNC(=O)c2c(Cl)ccnc2OCC2CC2)ccc1F", "ALDH2 (mutant)": "+"}
{"Compound": "O=C(NCc1ccc2ncoc2c1)c1c(Cl)ccnc1OCC1CC1", "ALDH2 (mutant)": "+"}
{"Compound": "O=C(NCc1ccc(F)c(F)c1)c1c(Cl)cccc1Br", "ALDH2 (mutant)": "+"}
{"Compound": "COc1ccc(CNC(=O)c2c(NCCO)cccc2NCCO)cc1F", "ALDH2 (mutant)": "+"}
{"Compound": "COc1ccc(CNC(=O)c2c(Cl)ccnc2NCC(C)O)cc1F (centres unmarked)", "ALDH2 (mutant)": "+"}
{"Compound": "O=S(=O)(NCc1ccc(F)c(F)c1)c1c(Cl)cccc1Cl", "ALDH2 (mutant)": "+"}
{"Compound": "COc1c(F)cc(CNC(=O)c2c(Cl)ccnc2OCC(C)C)cc1F", "ALDH2 (mutant)": "+"}
{"Compound": "COc1cc(F)c(CNC(=O)c2c(Cl)ccnc2OCC2CC2)cc1F", "ALDH2 (mutant)": "++++"}

Note: attention shifts to another entry.
Enquiry: Fill in the blank: the reported ALDH2 (mutant) of COCCOc1cccc(Cl)c1C(=O)NCc1ccc(OC)c(F)c1 is ____.
Return: ++

###

# Target Under Test: human ALDH2 wild type (Homo sapiens, UniProt P05091)
# Construct: His-tag (pTrcHis vector) (N); made in house; host or cells: E. coli BL21
# Assay Protocol: ALDH2 enzymatic assay (NADH at 340 nm), recombinant wild type enzyme
# Format: biochemical
# Parameters: key: −: no activation or inhibition; +: activation less than control 1; ++: activation similar to control 1, within 10%; +++: activation more than control 1 and less than control (compound 161); ++++: activation similar to compound 161, within 10%
# Recorded Conditions: activation relative to benchmarks control 1 and compound 161
Parameter: ALDH2 (wild-type)

Answered cases to consult:
{"Compound": "COc1ccc(CNC(=O)c2c(Cl)ccnc2S(=O)(=O)C(C)C)cc1F [Compound 222]", "ALDH2 (wild-type)": "+"}
{"Compound": "COc1ccc(CNC(=O)c2c(Cl)ccnc2NCC2CC2)cc1F [Compound 160]", "ALDH2 (wild-type)": "++"}
{"Compound": "COc1ccc(CNC(=O)c2c(Cl)ccnc2NCC(C)C)cc1F [Compound 182]", "ALDH2 (wild-type)": "+"}
{"Compound": "CCC(CC)Oc1nccc(C)c1C(=O)NCc1ccc(OC)c(F)c1 [Compound 234]", "ALDH2 (wild-type)": "+"}

Would you kindly look at the next entry?
Enquiry: # query: ALDH2 (wild-type) | item COc1ccc(CNC(=O)c2c(Cl)cccc2Br)cc1Cl [Compound 104] | system: human ALDH2 wild type (Homo sapiens, UniProt P05091)
Return: +

###

# Target Under Test: human ALDH2*2 recombinant mutant enzyme (E487K) (Homo sapiens, UniProt P05091, E504K)
# Construct: His-tag (pTrcHis vector) (N); made in house; host or cells: E. coli BL21
# Sequence (P05091 18-517 E504K): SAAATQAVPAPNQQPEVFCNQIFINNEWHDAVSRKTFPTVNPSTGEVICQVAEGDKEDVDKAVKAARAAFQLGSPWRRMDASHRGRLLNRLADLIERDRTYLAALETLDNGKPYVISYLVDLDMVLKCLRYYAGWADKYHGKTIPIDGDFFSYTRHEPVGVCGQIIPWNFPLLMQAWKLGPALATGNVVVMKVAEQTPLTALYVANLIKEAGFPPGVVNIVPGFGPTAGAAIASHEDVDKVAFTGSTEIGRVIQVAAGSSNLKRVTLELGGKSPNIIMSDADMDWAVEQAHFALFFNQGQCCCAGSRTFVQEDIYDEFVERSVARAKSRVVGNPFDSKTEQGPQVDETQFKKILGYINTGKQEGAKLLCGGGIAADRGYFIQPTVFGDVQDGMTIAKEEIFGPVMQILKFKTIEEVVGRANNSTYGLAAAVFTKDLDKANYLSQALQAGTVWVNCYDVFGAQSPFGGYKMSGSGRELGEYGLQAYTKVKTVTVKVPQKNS
# Assay Protocol: ALDH2 enzymatic assay (NADH at 340 nm), recombinant mutant enzyme
# Format: biochemical
# Design: key: −: no activation or inhibition; +: activation less than control 1; ++: activation similar to control 1, within 10%; +++: activation more than control 1 and less than control (compound 161); ++++: activation similar to compound 161, within 10%
# Recorded Conditions: activation relative to benchmarks control 1 and compound 161

{"Compound": "COc1ccc(CNC(=O)c2c(Cl)cccc2OCC2CC2)cc1F [Compound 135]", "ALDH2 (mutant)": "++++"}
{"Compound": "COc1ccc(CNC(=O)c2c(OCC3CC3)ccnc2Cl)cc1F [Compound 170]", "ALDH2 (mutant)": "+++"}
{"Compound": "COc1ccc(CNC(=O)c2c(OCC3CC3)ccnc2OCC2CC2)cc1F [Compound 162]", "ALDH2 (mutant)": "++"}
